Kindly state growth for each of the entries shown.
- System: MDA-MB-468 breast
- assay.procedure: NCI-60 one-dose screen, 48 h (100 = growth as untreated, 0 = no growth, -100 = all killed)
- reported.conditions: 10 µM unless noted
About 83,000 compounds went through this panel and 20% of them were active in at least one assay; those are over-represented in the sample as a whole.
Numbers only, in %.

Sample records with growth:
Given the compound Cc1ccc(Nc2ncnc3c2c(C)nn3-c2ccc([N+](=O)[O-])cc2)cc1 and test system MDA-MB-468 breast, the measured growth is 84.2

Given the compound COc1ccc(/C=N/C2=C(C#N)C(c3ccccc3)c3c(ccc4ccccc34)O2)cc1 (centres undefined) and test system MDA-MB-468 breast, the measured growth is -3.92

Given the compound O=CCCCC(O)C=O (centres undefined) and test system MDA-MB-468 breast, the measured growth is 98.9

Given the compound C=C1C(=O)O[C@H]2[C@H]1CC/C(COC(=O)CSCC(=O)OC/C1=C/CC[C@@]3(C)O[C@H]3[C@H]3OC(=O)C(=C)[C@@H]3CC1)=C\CC[C@@]1(C)O[C@@H]21 and test system MDA-MB-468 breast, the measured growth is -1.97

Given the compound Oc1ccccc1/C=N/Nc1nc(N/N=C/c2ccccc2O)nc(N2CCOCC2)n1 and test system MDA-MB-468 breast, the measured growth is 39.2

Give one value of growth per listed compound.
1. COc1c(O[C@@H]2OC(CO)[C@H](O)[C@H](O)C2O)cc2oc3cc(O)c(CC=C(C)C)c(O)c3c(=O)c2c1CC=C(C)C (some centres undefined)
2. COc1ccc(-c2ccnc3c(C#N)c(Nc4ccccc4)nn23)cc1OC
3. O=S(=O)(NCCCNc1nccc(-n2cnc3ccccc32)n1)c1ccc(C(F)(F)F)cc1
4. CN(C)CCNc1cccc2sc3ccc(O)cc3c(=O)c12

[99.8, 79.4, 76.2, 28.1]

###

- System: MDA-MB-468 breast
- assay.procedure: NCI-60 one-dose screen, 48 h (100 = growth as untreated, 0 = no growth, -100 = all killed)
- reported.conditions: 10 µM unless noted
The panel holds about 83,000 compounds, 20% with a hit somewhere; the sample as a whole holds those more often.
attribute.measured: growth (%)
One number for each entry, in %.

Sample records with growth:
Recorded result, Clc1ccc(-c2nc(C(Cl)Cl)nc3cc(-c4ccccc4)nn23)cc1 , growth: -33.8

Recorded result, O=C(NCCCN1CCN(CCCNC(=O)C2CCCCC2)CC1)C1CCCCC1 , growth: 110

Give one value of growth per listed compound.
1. Cn1cc(-c2csc(-c3cn(CCCN4CCCCC4)c4ccc(F)cc34)n2)c2cccnc21
2. Cc1ccc(S(=O)(=O)N2CCCN(c3nc(-c4ccccc4)nc4nc(-c5ccccc5)oc34)CC2)cc1

91.7
109

###

- Test system: MDA-MB-468 breast
- assay.procedure: NCI-60 one-dose screen, 48 h (100 = growth as untreated, 0 = no growth, -100 = all killed)
- reported.conditions: 10 µM unless noted
About 83,000 compounds went through this panel and 20% of them were active in at least one assay; those are over-represented in the sample as a whole.
Kindly state growth for each of the entries shown.
Give bare numbers, in %.

Recorded result, COc1ccc([N+](=O)[O-])c(S(=O)(=O)c2ccc(Cl)cc2)n1 , growth: 52

Recorded result, Cc1ccc(/C=C2\Oc3ccc(O)c(O)c3C2=O)cc1 , growth: 58.3

Recorded result, COc1ccc(C(O)c2cc3c(N)c(C(=O)Nc4ccc(Cl)cc4)sc3nc2C)cc1 (stereo not given) , growth: 3.39

Recorded result, COc1ccc(-c2nn(Cc3ccccc3)c3c2-c2oncc2CC3)cc1OC , growth: 99.9

Give one value of growth per listed compound.
1. CC1(C)[C@@H](O)CC[C@]2(C)[C@H]3CC[C@@H]4[C@H]5[C@H](c6cn(-c7ccccc7)nn6)CC[C@]5(CO)CC[C@@]4(C)[C@]3(C)CC[C@@H]12
2. Oc1[nH]c2ccccc2c1/C=c1/cc2c(c(-c3ccc(C(F)(F)F)cc3)n1)=Nc1ccccc1-2
3. O=C(O)COc1c(Cl)cc([N+](=O)[O-])cc1Cl

[65.4, 21.6, 99.4]

Give one value of growth per listed compound.
1. CCCCc1ccc(N=Nc2ccc(OCC[N+](C)(C)C)cc2)cc1
2. NC(=O)CN1C(=O)c2ccccc2C1=O
3. COc1ccc(/C=C2\CS(=O)(=O)C/C(=C\c3ccc(OC)cc3)C2=O)cc1

4.13
107
-85.3

###

Kindly state growth for each of the entries shown.
- Test system: MDA-MB-468 breast
- assay.procedure: NCI-60 one-dose screen, 48 h (100 = growth as untreated, 0 = no growth, -100 = all killed)
- reported.conditions: 10 µM unless noted
Compounds without any hit were thinned out: in the full panel of roughly 83,000, 20% have a hit.
Numbers only, in %.

Sample records with growth:
Recorded result, CNC(=O)c1cc(-n2ccc3cc(NC(=O)c4ccc(N5CCOCC5)c(C(F)(F)F)c4)ccc32)ccn1 , growth: 71.6

Recorded result, N#Cc1c(-c2cccs2)cc(-c2cnccn2)nc1SCC(=O)N/N=C/c1ccncc1 , growth: 103

Recorded result, NC(=O)c1ccc(N=C(N)N=C(N)N)cc1 , growth: 84.5

Recorded result, COc1cc2c(c(OC)c1OC)CCC(c1cccc(NC(=O)c3ccc(Br)cc3)c1)O2 (stereo not given) , growth: 35.8

Recorded result, Cc1ccc(-c2cc(-c3cccnc3)[nH]c(=O)c2C#N)cc1 , growth: 106

Give one value of growth per listed molecule.
1. CC(Sc1nc2sc3c(c2c(=O)n1-c1ccc(Cl)cc1)CCCC3)C(=O)Nc1nc(-c2ccc(Br)cc2)cs1 (stereo not given)
2. CC(=O)OCC1OC(n2cnc3c(=S)nc(N)[nH]c32)C(OC(C)=O)C1OC(C)=O (stereo not given)

105
68.5

###

- Tested on: MDA-MB-468 breast
- assay.procedure: NCI-60 one-dose screen, 48 h (100 = growth as untreated, 0 = no growth, -100 = all killed)
- reported.conditions: 10 µM unless noted
Compounds without any hit were thinned out: in the full panel of roughly 83,000, 20% have a hit.
attribute.measured: growth (%)
One number for each entry, in %.

Sample records with growth:
Given the compound CCCCOc1ccc(C(C)(C)c2ccc(OCCCC)cc2)cc1 and test system MDA-MB-468 breast, the measured growth is 132

Given the compound O=C(Nc1ccccn1)[C@H](O)[C@@H](O)C(=O)N1CCOCC1 and test system MDA-MB-468 breast, the measured growth is 119

Given the compound O=C(O)c1cc([N+](=O)[O-])ccc1Oc1ccccc1 and test system MDA-MB-468 breast, the measured growth is 101

Given the compound O=C(/C=C/c1cccc(B(O)O)c1)c1cccc(B(O)O)c1 and test system MDA-MB-468 breast, the measured growth is -84.9

Given the compound Cc1cc(NC(=O)CSCC(=O)O)no1 and test system MDA-MB-468 breast, the measured growth is 114

Given the compound NCCNc1ccc([N+](=O)[O-])cc1 and test system MDA-MB-468 breast, the measured growth is 110

Give one value of growth per listed compound.
1. COc1cccc(C2C3=C(COC3=O)N(CCO)c3cc(OC)ccc32)c1 (stereo not drawn)
2. CCNc1ncnc2n[nH]nc12
3. COc1ccc2cc(-c3nc4ccccc4s3)c(Cl)nc2c1OC
4. O=C(Nc1ccc(OS(=O)(=O)c2ccccc2)cc1)C12CC3CC(CC(C3)C1)C2
5. Cc1[nH]cnc1/C=C1\SC(N2CCCCC2)=NC1=O
6. CNCCCOc1c(Br)cc(CCNC(=O)/C(Cc2ccc(OC)c(Br)c2)=N/O)cc1Br

1. -13.2
2. 97.2
3. 103
4. 40.5
5. 101
6. 48.5

Give one value of growth per listed compound.
1. O=[N+]([O-])c1cccc(C2c3ccccc3Oc3ccccc32)c1
2. CCNC(=S)NNC(=O)c1cc2ccc1CCc1ccc(cc1)CC2
3. Cc1cccc(NC(=O)c2sc3nc4c(cc3c2N)CCCC4)c1
4. Cc1csc(/N=C(N)/N=C(\N)c2cccnc2)n1
5. Fc1ccccc1-c1nc(-c2nc3cc(Cl)c(Cl)cc3[nH]2)c2ccccn12
6. COc1ccc(-n2c(-c3ccccc3)c(-c3ccccc3)c3c(SCC(=O)N/N=C/c4ccc(Cl)cc4)ncnc32)cc1
7. NC(=S)Cc1ccccc1

1: 95.4; 2: 106; 3: 24.7; 4: 91.9; 5: 63.1; 6: 77.6; 7: 89.8

###

- Test system: MDA-MB-468 breast
- assay.procedure: NCI-60 one-dose screen, 48 h (100 = growth as untreated, 0 = no growth, -100 = all killed)
- reported.conditions: 10 µM unless noted
About 83,000 compounds went through this panel and 20% of them were active in at least one assay; those are over-represented in the sample as a whole.
Kindly state growth for each of the entries shown.
Numbers only, in %.

Sample records with growth:
Recorded result, O=C(Nc1ccc(-n2cc(-c3ccncc3)c(-c3ccc(Cl)c(O)c3)n2)cc1)c1ccc(Cl)c(C(F)(F)F)c1 , growth: -12

Recorded result, COc1cc(C(=O)/C=C/c2c(-c3ccc(F)cc3)nc3sccn23)cc(OC)c1OC , growth: 12.8

Recorded result, C[C@]12CC[C@@H]3c4cc(OC(F)F)c(O)cc4CC[C@H]3[C@@H]1CC[C@@H]2OS(N)(=O)=O , growth: -18.9

Recorded result, O=C(Nc1ccc(-n2ccc3c(NC(=O)c4ccccc4)ncnc32)cc1)Nc1cccc(Cl)c1Cl , growth: -35.7

Recorded result, CC1(C)CC(=O)C(c2c(-c3ccccc3)[nH]c3[nH]c(=S)[nH]c(=O)c23)=C(O)C1 , growth: 109

Give one value of growth per listed molecule.
1. Cc1c(O)c(O)cc2c3c(oc12)CC(c1ccc2c(c1)OCO2)CC3=O (stereo unspecified)
2. CSc1ccc(/C(=N/N=C(N)N)c2ccc(Cl)cc2)cc1
3. CC(Nc1c(C#N)cnc2ccc(-c3cnc(N)nc3)cc12)c1ccccc1 (stereo unspecified)
4. COc1cc(C(=O)n2nc(N3CCOCC3)c3cc(-n4cccc4)ccc32)cc(OC)c1OC
5. COc1ccc2c(c1)N(CCO)C1=C(C(=O)OC1)C2c1ccc(OC)c(OC)c1 (stereo unspecified)
6. O=C1/C(=C/c2ccc(Cl)cc2)N=C(c2ccccc2)N1CCc1cccs1
7. CCNC(=O)Oc1ccc(/C(=C(\C)c2ccccc2)c2ccc(OCCCN(C)C)cc2)cc1
8. Nc1c(C(=O)Nc2cccc(Cl)c2)sc2nc3c(cc12)C(=O)CCC3

1: 93.2; 2: -36.1; 3: -9.18; 4: 49.2; 5: 0.0938; 6: 72.4; 7: 86.6; 8: -10.6

Give one value of growth per listed molecule.
1. CC1(C)CC2(C)OC2C2(C1)N=NC(=Nc1ccccc1)O2 (stereo unspecified)
2. Cc1ccc(-c2ccc(Nc3ccccc3)nn2)cc1S(N)(=O)=O
3. CC(C)(C)c1ccc(NS(=O)(=O)c2ccc3nc(NC(=O)c4cnccn4)[nH]c3c2)cc1
4. O=C(Nc1cccc(Cl)c1)Oc1c(Cl)c(Cl)c(Cl)c(Cl)c1Cl
5. CCN1C(=O)N(CC)C2SC(N/N=C/c3cccs3)=NC21 (stereo unspecified)
6. COC(=O)c1ccc([N+](=O)[O-])c(C)c1

[-15.6, 64, -18.6, 110, 32.4, 102]

Give one value of growth per listed molecule.
1. CCOCCC(=O)O
2. O=[N+]([O-])c1ccc(S(=O)(=O)NN=C2CCCCC2)cc1

99.2
115
